The entries below come with measured IC50 values attached.
- test-method-notes: Growth inhibition of human GXF251L cells after 72 hrs by SRB assay
- Format: functional
- recorded-conditions: GXF 251L
The reply must contain the numeric value and, after it, the unit.

Some solved cases for reference:
compound: c1ccc2c(c1)ncc1cc3c(cc12)OCO3 [TRISPHAERIDINE]
observed-result: 12 µM

compound: COc1ccc2c[n+](C)c3ccc(O)cc3c2c1
observed-result: 8.4 µM

compound: COc1ccc2ncc3cc4c(cc3c2c1)OCO4
observed-result: 12.1 µM

[Q] Using the record for COc1ccc2c(c1)c1cc(OC)c(OC)cc1c[n+]2C , report its IC50.
[A] 7.8 µM
